meta.source: ChEMBL document CHEMBL4229525

assay protocol: Toxicity index, ratio of MTC for 24 to 72 hrs post fertilized zebra fish embryo harboring fli1:EGFP to MEC for antiangiogenic activity in 24 to 72 hrs post fertilized zebra fish embryo harboring fli1:EGFP
Assay type: organism-based, Danio rerio
reported conditions: fli1:EGFP transgenic, zebrafish, in vivo
property label: selectivity ratio
Number only, no unit.

Below, 2 molecules whose answers are already recorded.
                                        mol  quantitative_result
0  O=C(COc1c(O)cc2oc(-c3ccccc3)cc(=O)c2c1O)N1CCC(O)CC1                    1
1  CN1CCN(C(=O)COc2c(OCc3ccccc3)cc3oc(-c4ccccc4)cc(=O)c3c2O)CC1                    1

Exercise: I am curious: what selectivity ratio value has been reported for "O=C(COc1c(OCc2ccccc2)cc2oc(-c3ccccc3)cc(=O)c2c1O)N1CCN(CCO)CC1" ?
Key: 1

Exercise: What value of selectivity ratio has been recorded for this entry: "O=c1cc(-c2ccccc2)oc2cc(O)c(OCCCCCNCCO)c(O)c12"
Key: 2
